Where these numbers come from: patent US20200339692A1

Target: T1, human PD-L1 (Cat. #10084-H08H, Sino Biological) (human, UniProt Q9NZQ7 19-239)
T1 construct: Bought recombinant protein used in the Biacore test; also called hPDL1; hPD-L1
T1 sequence (Q9NZQ7 19-239 limits assumed): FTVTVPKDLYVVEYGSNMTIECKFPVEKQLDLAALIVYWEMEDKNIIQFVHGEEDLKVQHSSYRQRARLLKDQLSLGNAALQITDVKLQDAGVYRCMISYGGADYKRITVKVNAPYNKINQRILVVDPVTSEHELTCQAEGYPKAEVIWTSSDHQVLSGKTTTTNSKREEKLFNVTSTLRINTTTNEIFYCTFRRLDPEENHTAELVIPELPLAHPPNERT
Assay: SPR, Biacore X100, 1:1 Langmuir
Entries annotated with measured koff
MEASURED METRIC: koff

>>> endpoint_result("H17L61 (antibody, human IgG1, kappa, V domains shown, also called 24D5 H17 and 24D5 L61) VH: QVQLVQSGAEVKKPGASVKVSCKASGYTFTSYWMHWVRQAPGQGLEWMGRIGPNLGWAMYNEKYKNRVTMTRDTSTSTVYMELSSLGSEDTAVYYCARGGSSYDYFDYWGQGTTVTVSS VL: DIVLTQSPASLAVSPGQRATITCRASESVSIHGTHLMHWYQQKPGQPPKLLIYAASNLESGVPARFSGSGSGTDFTLTINPVEAEDTANYYCQQSFEDPLTFGQGTKLEIKR")
"9.53e-05 s⁻¹"
>>> endpoint_result("H14L61 (antibody, human IgG1, kappa, V domains shown, also called 24D5 H14 and 24D5 L61) VH: QVQLVQSGAEVKKPGASVKVSCKASGYTFTSYWMHWVRQAPGQGLEWMGRIHPSLGLPLYNEKFKNRVTMTRDTSTSTVYMELSSLRSEDTAVYYCARGGSSYDYFDYWGQGTTVTVSS VL: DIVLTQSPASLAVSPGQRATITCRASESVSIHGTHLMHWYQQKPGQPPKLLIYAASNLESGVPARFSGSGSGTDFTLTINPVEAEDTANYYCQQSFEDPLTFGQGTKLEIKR")
"9.1e-05 s⁻¹"
>>> endpoint_result("H15L61 (antibody, human IgG1, kappa, V domains shown, also called 24D5 H15 and 24D5 L61) VH: QVQLVQSGAEVKKPGASVKVSCKANGYTFTDKWMMWVRQAPGQGLEWMGRITPSSGFAMYNEKFKNRVTMTRDTSTSTVYMELSSLRSEDTAVYYCARGGSSYDYFDYWGQGTTVTVSS VL: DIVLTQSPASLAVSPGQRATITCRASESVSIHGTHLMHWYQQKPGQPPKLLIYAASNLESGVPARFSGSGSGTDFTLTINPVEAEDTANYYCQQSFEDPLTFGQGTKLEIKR")
"7.88e-05 s⁻¹"
